# assay.info: in vivo
# assay.conditions: male, Wistar, rat, po, 1.05 mg/kg
value.kind: half-life (h)

# structure.notation, quantitative.readout
data = [
    ("CN(C)CCC=C1c2ccccc2C=Cc2ccccc21", 1.43),
]

* * *

# assay.info: in vivo
# assay.conditions: male, beagle, dog, plasma, po, 0.51 mg/kg
value.kind: AUC(0-inf)

# structure.notation, result
data = [
    ("CN(C)CCC=C1c2ccccc2C=Cc2ccccc21", "7.58 ng·h/mL"),
]

* * *

# assay.info: in vivo
# assay.conditions: male, Wistar, rat, plasma, inhaled or intranasal, 0.02 mg/kg
value.kind: AUC(0-inf)

# structure.notation, result
measured = [
    ("CN(C)CCC=C1c2ccccc2C=Cc2ccccc21", "2.59 ng·h/mL"),
]

* * *

# assay.info: in vivo
# assay.conditions: male, Wistar, rat, in vivo, inhaled or intranasal, AUC(0-t), planned 0.2 mg/kg (actual 0.14 mg/kg), mean ± SD, N=4
value.kind: AUC(0-t) (ng·h/mL)

# molecule, quantitative.readout
rows = [
    ("CN(C)CCC=C1c2ccccc2C=Cc2ccccc21 [cyclobenzaprine]", 22.4),
]

* * *

# assay.info: in vivo
# assay.conditions: New Zealand white, rabbit, plasma, inhaled or intranasal, 0.011 mg/kg

# structure.notation, Vd/F [L/kg]
measured = [
    ("CN(C)CCC=C1c2ccccc2C=Cc2ccccc21", 28.6),
]

* * *

# assay.info: in vivo
# assay.conditions: male, Wistar, rat, plasma, po, 0.885 mg/kg

# structure.notation, half-life [h]
rows = [
    ("CN(C)CCC=C1c2ccccc2C=Cc2ccccc21", 2.61),
]

* * *

# assay.info: in vivo
# assay.conditions: male, Wistar, rat, po, 1.05 mg/kg
value.kind: AUC(0-inf) (ng·h/mL)

# structure.notation, quantitative.readout
records = [
    ("CN(C)CCC=C1c2ccccc2C=Cc2ccccc21", 3.27),
]

* * *

# assay.info: in vivo
# assay.conditions: male, Wistar, rat, plasma, po, 0.885 mg/kg
value.kind: AUC(0-inf)

# compound, value.kind, result
records = [
    ("CN(C)CCC=C1c2ccccc2C=Cc2ccccc21 [cyclobenzaprine]", "AUC(0-inf)", "3.26 ng·h/mL"),
]

* * *

# assay.info: in vivo
# assay.conditions: male, Wistar, rat, plasma, inhaled or intranasal, AUC(0-t), planned 0.05 mg/kg (actual 0.03 mg/kg), mean ± SD, N=4
value.kind: AUC(0-t) (ng·h/mL)

# compound, unit.info, quantitative.readout
rows = [
    ("CN(C)CCC=C1c2ccccc2C=Cc2ccccc21 [cyclobenzaprine]", "ng·h/mL", 4.8),
]

* * *

# assay.info: in vivo
# assay.conditions: male, beagle, dog, plasma, po, 0.51 mg/kg

# structure.notation, unit.info, Cmax
data = [
    ("CN(C)CCC=C1c2ccccc2C=Cc2ccccc21", "ng/mL", 1.61),
]

* * *

# assay.info: in vivo
# assay.conditions: male, beagle, dog, plasma, inhaled or intranasal, 0.26 mg/kg

# molecule, Tmax, min
measured = [
    ("CN(C)CCC=C1c2ccccc2C=Cc2ccccc21 [cyclobenzaprine]", 4.98),
]

* * *

# assay.info: in vivo
# assay.conditions: New Zealand white, rabbit, plasma, inhaled or intranasal, 0.011 mg/kg

# molecule, AUC(0-inf), ng·h/mL
records = [
    ("CN(C)CCC=C1c2ccccc2C=Cc2ccccc21 [cyclobenzaprine]", 0.92),
]

* * *

# assay.info: in vivo
# assay.conditions: male, Wistar, rat, plasma, inhaled or intranasal, Cmax, planned 0.2 mg/kg (actual 0.14 mg/kg), mean ± SD, N=4

# compound, Cmax
measured = [
    ("CN(C)CCC=C1c2ccccc2C=Cc2ccccc21 [cyclobenzaprine]", "0.0276 µg/mL"),
]

* * *

# assay.info: in vivo
# assay.conditions: male, Wistar, rat, inhaled or intranasal, 0.4 mg/kg

# compound, unit.info, Cmax
data = [
    ("CN(C)CCC=C1c2ccccc2C=Cc2ccccc21 [cyclobenzaprine]", "ng/mL", 31.3),
]

* * *

# assay.info: in vivo
# assay.conditions: male, Wistar, rat, inhaled or intranasal, 0.4 mg/kg

# structure.notation, half-life [h]
rows = [
    ("CN(C)CCC=C1c2ccccc2C=Cc2ccccc21", 2.79),
]

* * *

# assay.info: in vivo
# assay.conditions: male, Wistar, rat, po, 1.05 mg/kg

# compound, AUC(0-t) (ng·h/mL)
data = [
    ("CN(C)CCC=C1c2ccccc2C=Cc2ccccc21 [cyclobenzaprine]", 2.98),
]

* * *

# assay.info: in vivo
# assay.conditions: male, Wistar, rat, po, 1.05 mg/kg

# structure.notation, Cmax, ng/mL
measured = [
    ("CN(C)CCC=C1c2ccccc2C=Cc2ccccc21", 1.74),
]

* * *

# assay.info: in vivo
# assay.conditions: male, Wistar, rat, plasma, inhaled or intranasal, Cmax, planned 0.1 mg/kg (actual 0.07 mg/kg), mean ± SD, N=4

# compound, Cmax
data = [
    ("CN(C)CCC=C1c2ccccc2C=Cc2ccccc21 [cyclobenzaprine]", "16.4 ng/mL"),
]

* * *

# assay.info: in vivo
# assay.conditions: male, beagle, dog, plasma, po, 0.51 mg/kg
value.kind: AUC(0-t) (ng·h/mL)

# compound, unit.info, quantitative.readout
data = [
    ("CN(C)CCC=C1c2ccccc2C=Cc2ccccc21 [cyclobenzaprine]", "ng·h/mL", 7.03),
]

* * *

# assay.info: in vivo
# assay.conditions: male, Wistar, rat, in vivo, inhaled or intranasal, T½, planned 0.2 mg/kg (actual 0.14 mg/kg), mean ± SD, N=4

# structure.notation, half-life / h
rows = [
    ("CN(C)CCC=C1c2ccccc2C=Cc2ccccc21", 2.2),
]

* * *

# assay.info: in vivo
# assay.conditions: male, beagle, dog, plasma, inhaled or intranasal, 0.26 mg/kg

# compound, unit.info, AUC(0-inf)
records = [
    ("CN(C)CCC=C1c2ccccc2C=Cc2ccccc21 [cyclobenzaprine]", "ng·h/mL", 103),
]

* * *

# assay.info: in vivo
# assay.conditions: male, Wistar, rat, plasma, inhaled or intranasal, 0.02 mg/kg

# structure.notation, unit.info, half-life
records = [
    ("CN(C)CCC=C1c2ccccc2C=Cc2ccccc21", "h", 1.07),
]

* * *

# assay.info: in vivo
# assay.conditions: New Zealand white, rabbit, plasma, inhaled or intranasal, 0.011 mg/kg

# compound, unit.info, AUC(0-t)
measured = [
    ("CN(C)CCC=C1c2ccccc2C=Cc2ccccc21 [cyclobenzaprine]", "ng·h/mL", 0.52),
]

* * *

# assay.info: in vivo
# assay.conditions: male, Wistar, rat, plasma, inhaled or intranasal, AUC(0-t), planned 0.1 mg/kg (actual 0.07 mg/kg), mean ± SD, N=4
value.kind: AUC(0-t) (ng·h/mL)

# structure.notation, quantitative.readout
records = [
    ("CN(C)CCC=C1c2ccccc2C=Cc2ccccc21", 10.6),
]
